Sourced from the supplement of paper PMC12645437

Kindly state log2 fold change of degron read counts for each of the entries shown.
Target: T1, CRBN, Q96SW2;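 also: pooled lentiviral library of zinc finger degron-EGFP fusions in mCherry-positive Jurkat cells, FACS-sorted after compound exposure, with degron abundance counted by next-generation sequencing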
T1 chain: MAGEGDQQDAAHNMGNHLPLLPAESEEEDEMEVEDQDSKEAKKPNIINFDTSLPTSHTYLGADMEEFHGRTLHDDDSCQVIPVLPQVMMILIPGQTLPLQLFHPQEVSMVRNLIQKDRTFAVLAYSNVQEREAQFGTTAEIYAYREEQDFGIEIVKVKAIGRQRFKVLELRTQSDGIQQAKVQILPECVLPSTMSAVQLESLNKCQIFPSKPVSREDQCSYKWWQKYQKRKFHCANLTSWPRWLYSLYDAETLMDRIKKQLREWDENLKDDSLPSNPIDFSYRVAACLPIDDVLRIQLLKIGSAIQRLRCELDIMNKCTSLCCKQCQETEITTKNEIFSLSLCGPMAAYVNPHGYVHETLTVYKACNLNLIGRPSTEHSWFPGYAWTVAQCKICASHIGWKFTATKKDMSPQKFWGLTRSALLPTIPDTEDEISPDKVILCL
Experiment: log2 fold change of degron read counts, EGFP-low vs EGFP+ sorted cells (limma voom), compound-induced degradation; higher = more compound-induced degradation of the degron-EGFP fusion; degrons are variants of IKZF1/3 zinc finger 2; compound dose not given here
Conditions: Jurkat; 18 h; compound: compound 19 (5-tert-butyl-thalidomide)
Over roughly 8,300 sequences, “log2 fold change of degron read counts, EGFP-low vs EGFP+ sorted cells (limma voom), compound-induced degradation” has its median near -1.1; the highest 2% begin near 3.2. The entries come from a sample that favours the highest values as a whole.
Write no unit; give the number alone.

Task: I have this sequence here, LVCPICGFQCTQKGNLLRHIKL [46L_47V_49P_50I_52G_53F_54Q_55C_67L_, Q9UKT9] , and I need its recorded log2 fold change of degron read counts.
Result: 1.16

Task: I have this sequence here, FRCEQCGASFTQKGNLLRHIKL [46F_47R_49E_50Q_52G_53A_54S_55F_67L_, Q9UKT9] , and I need its recorded log2 fold change of degron read counts.
Result: -1.07

Task: I have this sequence here, LHCPICGFQCTQKGNLLRHIKL [46L_47H_49P_50I_52G_53F_54Q_55C_67L_, Q9UKT9] , and I need its recorded log2 fold change of degron read counts.
Result: 2.57

Task: I have this sequence here, LGCPICGFQCTQKGNLLRHIKL [46L_47G_49P_50I_52G_53F_54Q_55C_67L_, Q9UKT9] , and I need its recorded log2 fold change of degron read counts.
Result: 3.74

Task: I have this sequence here, LSCPICGFQCTQKGNLLRHIKL [46L_47S_49P_50I_52G_53F_54Q_55C_67L_, Q9UKT9] , and I need its recorded log2 fold change of degron read counts.
Result: 2.31

Task: I have this sequence here, FSCPICGHCFTQKGNLLRHIKL [46F_47S_49P_50I_52G_53H_54C_55F_67L_, Q9UKT9] , and I need its recorded log2 fold change of degron read counts.
Result: -2.27

Task: I have this sequence here, LECPICGFQCTQKGNLLRHIKL [46L_47E_49P_50I_52G_53F_54Q_55C_67L_, Q9UKT9] , and I need its recorded log2 fold change of degron read counts.
Result: -0.146
